Quick list: Tmax per entry.
Assay: Rodent pharmacokinetics, male Balb/c mouse, plasma PK
Type: in vivo
Conditions: plasma, PO, 10 mg/kg, Mesylate Salt
Expressed in min, but write only the number.

smiles-input | unit-string | Tmax
c1cc(-c2nc(N3CCOCC3)c3oc4ncc(CN5CCC56COC6)cc4c3n2)c2cc[nH]c2c1 | min | 15

Field: next compound
query: Reported Tmax, compound c1cc(-c2nc(N3CCOCC3)c3oc4ncc(CN5CCC6(CC5)COC6)cc4c3n2)c2cc[nH]c2c1 : ____
result: 60

====

Assay: Rodent pharmacokinetics, male CD1 mouse, plasma PK
Type: in vivo
Conditions: male, CD1, mouse, plasma, iv, 5 mg/kg, HCl Salt
Protocol: Formulation: 10% DMSO, 90% Saline Dosing: 10 mg/kg P.O. and 5 mg/kg I.V. Plasma PK Summary: Formulation: 10% DMSO, 90% Saline Dosing: 10 mg/kg P.O. and 5 mg/kg I.V.
observed-property: Cmax (ng/mL)
Provide the reading as a plain figure in ng/mL.

query: GET /values?readout=Cmax&item= c1cc(-c2nc(N3CCOCC3)c3oc4ncc(CN5CCCCC5)cc4c3n2)c2cc[nH]c2c1 [Example I in WO2011/021038]
result: 1710

====

Molecular target: PI3K p110γ (Homo sapiens)
Sequence (P48736 whole entry): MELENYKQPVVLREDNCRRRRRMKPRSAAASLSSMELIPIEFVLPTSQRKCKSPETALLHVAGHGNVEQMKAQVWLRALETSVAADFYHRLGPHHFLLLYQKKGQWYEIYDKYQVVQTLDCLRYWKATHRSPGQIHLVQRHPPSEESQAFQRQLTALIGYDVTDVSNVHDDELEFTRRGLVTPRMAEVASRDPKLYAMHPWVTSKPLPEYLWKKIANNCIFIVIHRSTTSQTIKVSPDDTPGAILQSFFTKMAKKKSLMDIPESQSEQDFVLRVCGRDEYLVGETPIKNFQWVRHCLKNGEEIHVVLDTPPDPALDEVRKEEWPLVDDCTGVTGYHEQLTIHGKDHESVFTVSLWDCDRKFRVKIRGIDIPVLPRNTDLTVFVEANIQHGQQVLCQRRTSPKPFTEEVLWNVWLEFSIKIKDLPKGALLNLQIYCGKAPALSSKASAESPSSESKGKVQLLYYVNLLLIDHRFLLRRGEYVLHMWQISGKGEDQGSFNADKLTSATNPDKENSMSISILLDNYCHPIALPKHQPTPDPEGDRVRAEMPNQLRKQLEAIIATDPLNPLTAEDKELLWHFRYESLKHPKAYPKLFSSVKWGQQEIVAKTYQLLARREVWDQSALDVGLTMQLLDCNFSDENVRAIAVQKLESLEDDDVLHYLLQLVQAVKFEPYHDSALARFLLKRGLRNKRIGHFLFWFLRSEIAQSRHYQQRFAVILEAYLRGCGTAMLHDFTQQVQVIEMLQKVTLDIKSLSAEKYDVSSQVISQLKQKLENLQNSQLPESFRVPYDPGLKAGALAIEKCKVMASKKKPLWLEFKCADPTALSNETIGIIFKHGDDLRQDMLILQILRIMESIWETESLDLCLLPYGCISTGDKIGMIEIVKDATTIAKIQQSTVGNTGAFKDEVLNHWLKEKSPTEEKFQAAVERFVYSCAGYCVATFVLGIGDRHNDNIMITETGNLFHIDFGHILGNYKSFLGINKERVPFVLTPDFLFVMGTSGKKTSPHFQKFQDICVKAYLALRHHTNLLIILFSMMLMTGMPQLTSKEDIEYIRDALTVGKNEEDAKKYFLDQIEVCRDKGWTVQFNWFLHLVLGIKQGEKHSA
Assay: HTRF biochemical assay, PI3K p110γ
observed-property: IC50

query: Reported IC50 for PI3K p110γ (Homo sapiens), given c1cc(-c2nc(N3CCOCC3)c3oc4ncc(CN5CCC56COC6)cc4c3n2)c2cc[nH]c2c1 ?
result: 500 to 1000 nM

====

Test: Rodent pharmacokinetics, male CD1 mouse, plasma PK
Format: in vivo
Details: male, CD1, mouse, plasma, iv, 5 mg/kg, HCl Salt
observed-property: Vd (L/kg)
# output: bare number, implied unit L/kg

query: If you can, please state the reported Vd value of c1cc(-c2nc(N3CCOCC3)c3oc4ncc(CN5CCCCC5)cc4c3n2)c2cc[nH]c2c1 .
result: 10.1

====

Assay: Rodent pharmacokinetics, male CD1 mouse, plasma PK
Type: in vivo
Conditions: male, CD1, mouse, plasma, po, 10 mg/kg, HCl Salt
observed-property: half-life (min)
Give the value in min but do not write min after it.

query: Which half-life is reported for this compound? c1cc(-c2nc(N3CCOCC3)c3oc4ncc(CN5CCCCC5)cc4c3n2)c2cc[nH]c2c1
result: 108

====

Experiment: Rodent pharmacokinetics, male Balb/c mouse, plasma PK
Assay type: in vivo
Conditions: plasma, oral, 10 mg/kg P.O. and 3 mg/kg I.V., read-out: Oral bioavailability (F)
Protocol: Animals in Group 1 were administered intravenously with Example B solution formulation in 20% Propylene Glycol, 50% of PEG 400 and 30% of (20% HPβCD in water) via tail vein at a dose of 3 mg/kg. Animals in Group 2 were administered with oral solution formulation of Example B in 20% Propylene Glycol, 50% of PEG 400 and 30% of (20% HPβCD in water) at a dose of 10 mg/kg; Dosing: 10 mg/kg P.O. and 3 mg/kg I.V. […]
observed-property: bioavailability (%)
Value expressed in %; do not type the unit.

compound | bioavailability [%]
c1cc(-c2nc(N3CCOCC3)c3oc4ncc(CN5CCC6(CC5)COC6)cc4c3n2)c2cc[nH]c2c1 [Example B] | 74

Now look at this entry.
query: Value lookup for bioavailability; key = c1cc(-c2nc(N3CCOCC3)c3oc4ncc(CN5CCC56COC6)cc4c3n2)c2cc[nH]c2c1 [Example G]
result: 30

====

Assay: Rodent pharmacokinetics, male CD1 mouse, plasma PK
Format: in vivo
Settings: plasma, IV, 5 mg/kg, Mesylate Salt, read-out: Tmax
Below: a set of entries, each annotated with reported Tmax.
Give a bare numeral; the unit min is implied.

compound | numeric-readout
c1cc(-c2nc(N3CCOCC3)c3oc4ncc(CN5CCCCC5)cc4c3n2)c2cc[nH]c2c1 [Example I in WO2011/021038] | 4.8

query: State the recorded Tmax for this entry: c1cc(-c2nc(N3CCOCC3)c3oc4ncc(CN5C[C@@H]6C[C@H]5CO6)cc4c3n2)c2cc[nH]c2c1 [Example A]
result: 4.8

====

Biological target: PI3K p110α (Homo sapiens, UniProt P42336)
Sequence (P42336 whole entry): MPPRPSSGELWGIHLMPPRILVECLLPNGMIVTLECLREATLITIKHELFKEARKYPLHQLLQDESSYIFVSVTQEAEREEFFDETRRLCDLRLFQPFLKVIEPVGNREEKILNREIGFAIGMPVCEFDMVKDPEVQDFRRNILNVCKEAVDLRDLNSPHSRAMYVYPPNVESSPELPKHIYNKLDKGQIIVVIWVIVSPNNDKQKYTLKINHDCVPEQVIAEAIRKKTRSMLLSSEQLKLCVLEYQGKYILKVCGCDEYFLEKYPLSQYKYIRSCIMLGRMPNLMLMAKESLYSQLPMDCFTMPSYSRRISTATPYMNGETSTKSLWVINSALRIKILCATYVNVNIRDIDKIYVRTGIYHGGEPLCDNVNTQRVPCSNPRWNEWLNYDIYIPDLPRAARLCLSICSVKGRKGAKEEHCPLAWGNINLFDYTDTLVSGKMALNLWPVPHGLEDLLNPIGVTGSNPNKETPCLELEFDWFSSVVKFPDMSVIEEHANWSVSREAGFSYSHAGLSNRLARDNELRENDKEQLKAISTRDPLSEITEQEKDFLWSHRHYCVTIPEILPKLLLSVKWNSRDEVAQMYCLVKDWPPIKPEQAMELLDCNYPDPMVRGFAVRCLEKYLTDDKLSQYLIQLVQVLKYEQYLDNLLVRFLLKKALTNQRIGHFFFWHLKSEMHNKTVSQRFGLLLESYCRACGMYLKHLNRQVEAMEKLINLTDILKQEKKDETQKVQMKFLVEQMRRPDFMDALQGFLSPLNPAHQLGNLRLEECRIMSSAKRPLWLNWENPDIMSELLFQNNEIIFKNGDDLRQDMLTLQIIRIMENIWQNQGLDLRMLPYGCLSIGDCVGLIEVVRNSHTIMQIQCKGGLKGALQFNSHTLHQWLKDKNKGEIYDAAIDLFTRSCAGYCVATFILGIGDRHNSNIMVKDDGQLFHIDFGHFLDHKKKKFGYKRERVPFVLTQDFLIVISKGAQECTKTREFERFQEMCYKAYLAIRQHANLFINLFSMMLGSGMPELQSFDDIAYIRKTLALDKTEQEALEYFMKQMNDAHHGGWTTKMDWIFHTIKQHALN
Sequence (P27986 whole entry partner): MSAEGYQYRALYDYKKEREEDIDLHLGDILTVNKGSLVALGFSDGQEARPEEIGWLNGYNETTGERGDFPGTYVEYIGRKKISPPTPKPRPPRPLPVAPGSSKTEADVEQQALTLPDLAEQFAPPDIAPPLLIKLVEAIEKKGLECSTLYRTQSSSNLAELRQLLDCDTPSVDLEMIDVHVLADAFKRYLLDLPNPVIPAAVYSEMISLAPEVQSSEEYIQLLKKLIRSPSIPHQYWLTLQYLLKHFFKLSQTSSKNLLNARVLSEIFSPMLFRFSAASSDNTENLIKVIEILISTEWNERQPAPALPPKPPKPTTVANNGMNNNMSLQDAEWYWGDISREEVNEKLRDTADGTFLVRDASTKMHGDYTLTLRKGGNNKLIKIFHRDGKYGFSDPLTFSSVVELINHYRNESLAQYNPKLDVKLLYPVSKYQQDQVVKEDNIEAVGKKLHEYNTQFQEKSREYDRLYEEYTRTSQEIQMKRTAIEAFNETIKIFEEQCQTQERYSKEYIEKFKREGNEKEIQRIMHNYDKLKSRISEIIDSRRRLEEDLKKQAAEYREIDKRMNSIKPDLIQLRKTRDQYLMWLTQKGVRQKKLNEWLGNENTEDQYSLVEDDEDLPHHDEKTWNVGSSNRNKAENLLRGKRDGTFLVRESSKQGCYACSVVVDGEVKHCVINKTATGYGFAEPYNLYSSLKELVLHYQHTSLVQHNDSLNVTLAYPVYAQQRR
Experiment: HTRF biochemical assay, PI3K p110α
observed-property: IC50

query: # IC50 lookup, item c1cc(-c2nc(N3CCOCC3)c3oc4ncc(CN5CCC56COC6)cc4c3n2)c2cc[nH]c2c1 [Example G]
result: ≤ 500 nM

====

Molecular target: PI3K p110β (Homo sapiens)
Sequence (P42338 whole entry): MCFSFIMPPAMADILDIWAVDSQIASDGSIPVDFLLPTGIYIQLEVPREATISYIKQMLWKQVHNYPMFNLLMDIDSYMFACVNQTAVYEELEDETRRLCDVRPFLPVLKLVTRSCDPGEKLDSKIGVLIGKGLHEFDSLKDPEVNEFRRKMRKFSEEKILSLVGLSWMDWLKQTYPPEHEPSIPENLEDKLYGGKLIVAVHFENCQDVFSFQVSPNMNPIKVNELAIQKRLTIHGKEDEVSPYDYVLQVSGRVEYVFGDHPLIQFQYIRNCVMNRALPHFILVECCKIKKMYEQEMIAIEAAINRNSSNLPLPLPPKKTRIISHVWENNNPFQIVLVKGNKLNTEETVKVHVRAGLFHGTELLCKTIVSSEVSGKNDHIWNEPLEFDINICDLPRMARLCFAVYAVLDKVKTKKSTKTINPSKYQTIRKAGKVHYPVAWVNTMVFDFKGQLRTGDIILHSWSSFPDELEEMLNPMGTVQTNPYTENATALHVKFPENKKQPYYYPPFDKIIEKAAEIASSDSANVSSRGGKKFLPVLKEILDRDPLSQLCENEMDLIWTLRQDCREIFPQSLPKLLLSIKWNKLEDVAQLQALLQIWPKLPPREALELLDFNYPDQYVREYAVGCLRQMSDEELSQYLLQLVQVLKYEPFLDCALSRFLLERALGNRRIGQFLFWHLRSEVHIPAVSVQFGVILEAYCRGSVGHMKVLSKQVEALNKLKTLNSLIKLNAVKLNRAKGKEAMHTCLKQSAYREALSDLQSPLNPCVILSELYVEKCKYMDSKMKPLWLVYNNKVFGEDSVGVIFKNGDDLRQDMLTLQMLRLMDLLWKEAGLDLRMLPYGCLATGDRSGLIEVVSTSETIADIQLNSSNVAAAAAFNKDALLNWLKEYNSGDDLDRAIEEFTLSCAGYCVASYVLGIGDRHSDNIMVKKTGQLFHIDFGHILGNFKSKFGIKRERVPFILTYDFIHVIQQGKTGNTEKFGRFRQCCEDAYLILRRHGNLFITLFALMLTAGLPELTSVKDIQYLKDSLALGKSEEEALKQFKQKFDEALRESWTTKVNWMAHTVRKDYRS
Sequence (P27986 whole entry partner): as the sequence (P27986 whole entry partner) above
Assay: HTRF biochemical assay, PI3K p110β
observed-property: IC50

query: # lookup: IC50 of c1cc(-c2nc(N3CCOCC3)c3oc4ncc(CN5CCC56COC6)cc4c3n2)c2cc[nH]c2c1
result: ≤ 500 nM

====

Assay: Rodent pharmacokinetics, male Balb/c mouse, plasma PK
Type: in vivo
Conditions: plasma, IV, 3 mg/kg, Mesylate Salt
Reported values of AUC(0-inf) for individual entries
Report the value in ng·h/mL with no unit label.

smiles-input | numeric-readout
c1cc(-c2nc(N3CCOCC3)c3oc4ncc(CN5CCC56COC6)cc4c3n2)c2cc[nH]c2c1 | 1940

Proceeding to the next compound to report its AUC(0-inf).
query: What AUC(0-inf) value was documented for this compound, c1cc(-c2nc(N3CCOCC3)c3oc4ncc(CN5CCC6(CC5)COC6)cc4c3n2)c2cc[nH]c2c1 ?
result: 1510

====

Assay: Rodent pharmacokinetics, male Balb/c mouse, plasma PK
Format: in vivo
Details: plasma, IV, 3 mg/kg, Mesylate Salt
observed-property: half-life (min)
Hi! Could you send only the number? It should be in min, unit omitted.

smiles-input | observed-property | unit-string | numeric-readout
c1cc(-c2nc(N3CCOCC3)c3oc4ncc(CN5CCC56COC6)cc4c3n2)c2cc[nH]c2c1 | half-life | min | 35.4

Query compound follows.
query: Could you share which half-life value was measured for c1cc(-c2nc(N3CCOCC3)c3oc4ncc(CN5CCC6(CC5)COC6)cc4c3n2)c2cc[nH]c2c1 ?
result: 73.8

====

Assay: Rodent pharmacokinetics, male CD1 mouse, plasma PK
Format: in vivo
Details: male, CD1, mouse, plasma, po, 10 mg/kg, Mesylate Salt
observed-property: AUC(0-t) (ng·h/mL)
Give your result in ng·h/mL as a bare value.

smiles-input | observed-property | numeric-readout
c1cc(-c2nc(N3CCOCC3)c3oc4ncc(CN5C[C@@H]6C[C@H]5CO6)cc4c3n2)c2cc[nH]c2c1 | AUC(0-t) | 5620

query: So what's the measured AUC(0-t) for this one? c1cc(-c2nc(N3CCOCC3)c3oc4ncc(CN5CCCCC5)cc4c3n2)c2cc[nH]c2c1
result: 657

====

Assay: Rodent pharmacokinetics, male CD1 mouse, plasma PK
Assay type: in vivo
Details: male, CD1, mouse, plasma, iv, 5 mg/kg, Mesylate Salt
observed-property: Cmax (µg/mL)
# output: bare number, implied unit µg/mL

smiles-input | numeric-readout
c1cc(-c2nc(N3CCOCC3)c3oc4ncc(CN5C[C@@H]6C[C@H]5CO6)cc4c3n2)c2cc[nH]c2c1 | 2.64

query: Recorded Cmax for c1cc(-c2nc(N3CCOCC3)c3oc4ncc(CN5CCCCC5)cc4c3n2)c2cc[nH]c2c1 , please?
result: 1.62

====

Assay: Rodent pharmacokinetics, male CD1 mouse, plasma PK
Assay type: in vivo
Settings: plasma, PO, 10 mg/kg, Mesylate Salt, read-out: Tmax
observed-property: Tmax (h)
Report the figure in h without appending any unit label.

smiles-input | unit-string | numeric-readout
c1cc(-c2nc(N3CCOCC3)c3oc4ncc(CN5CCCCC5)cc4c3n2)c2cc[nH]c2c1 | h | 1

Now consider the entry below.
query: What value of Tmax has been recorded for this entry: c1cc(-c2nc(N3CCOCC3)c3oc4ncc(CN5C[C@@H]6C[C@H]5CO6)cc4c3n2)c2cc[nH]c2c1
result: 1

====

Assay: Rodent pharmacokinetics, male CD1 mouse, plasma PK
Format: in vivo
Conditions: male, CD1, mouse, plasma, po, 10 mg/kg, HCl Salt
observed-property: AUC(0-inf) (ng·h/mL)
Unit ng·h/mL implied. Number only.

query: For the molecule shown here, c1cc(-c2nc(N3CCOCC3)c3oc4ncc(CN5CCCCC5)cc4c3n2)c2cc[nH]c2c1 , give the reported AUC(0-inf).
result: 896

====

Test: Rodent pharmacokinetics, male CD1 mouse, plasma PK
Format: in vivo
Settings: male, CD1, mouse, plasma, po, 10 mg/kg, Mesylate Salt
observed-property: AUC (ng·h/mL)
# number only, unit ng·h/mL dropped from output

smiles-input | AUC (ng·h/mL)
c1cc(-c2nc(N3CCOCC3)c3oc4ncc(CN5CCCCC5)cc4c3n2)c2cc[nH]c2c1 | 657

Now let's try a different one.
query: Data request, read-out AUC, for c1cc(-c2nc(N3CCOCC3)c3oc4ncc(CN5C[C@@H]6C[C@H]5CO6)cc4c3n2)c2cc[nH]c2c1
result: 5620
